- SYSTEM UNDER TEST: NMB Receptor (Rattus norvegicus)
- Construct: a full length NMB-preferring bombesin receptor clone generated from rat esophagus; expressed in transfected cells; host or cells: BALB 3T3 cells
- Sequence (P24053 1-390): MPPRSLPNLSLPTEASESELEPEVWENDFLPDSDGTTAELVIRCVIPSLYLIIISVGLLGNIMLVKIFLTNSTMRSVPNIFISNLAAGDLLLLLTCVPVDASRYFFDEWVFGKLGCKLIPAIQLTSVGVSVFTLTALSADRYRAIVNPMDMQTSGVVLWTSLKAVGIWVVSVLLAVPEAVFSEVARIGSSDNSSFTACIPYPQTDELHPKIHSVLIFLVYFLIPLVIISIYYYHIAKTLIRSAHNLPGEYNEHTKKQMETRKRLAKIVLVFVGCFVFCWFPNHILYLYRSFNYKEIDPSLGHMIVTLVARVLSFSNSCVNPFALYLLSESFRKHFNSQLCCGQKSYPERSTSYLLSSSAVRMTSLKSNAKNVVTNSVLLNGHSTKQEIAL
- PROTOCOL TEXT: [3H]inositol phosphates (IP) in NMB-R transfected cells
- Format: cell-based
- STATED CONDITIONS: NMB-R transfected cells; 3 nM NMB; peptide 10 µM
Where a SMILES comes first, the peptide text is derived from it. Bridges are numbered along the chain shown (N, C = ends). [ ]: non-standard residue; d: D form. 2Nal = N[C@@H](Cc1ccc2ccccc2c1)C(=O)O; d2Nal = N[C@H](Cc1ccc2ccccc2c1)C(=O)O
MEASURE: effect on NMB-stimulated increase in [^3H]IP

[
  {
    "COMPOUND": "CC(C)[C@@H]1NC(=O)[C@H](CCCCN)NC(=O)[C@@H](Cc2c[nH]c3ccccc23)NC(=O)[C@H](Cc2ccc(O)cc2)NC(=O)[C@H](NC(=O)[C@H](N)Cc2ccc3ccccc3c2)CSSC[C@@H](C(=O)N[C@@H](Cc2ccc3ccccc3c2)C(N)=O)NC1=O [Analog #10, [D-Cys^2]-cyclo SS-octa] (H-[d2Nal][dC]Y[dW]KVC[2Nal]-NH2; disulfide 2-7; N-terminus assumed)",
    "SYSTEM UNDER TEST": "NMB Receptor (Rattus norvegicus)",
    "OBSERVED MEASUREMENT": "completely inhibited"
  },
  {
    "COMPOUND": "NCCCC[C@@H]1NC(=O)[C@@H](Cc2c[nH]c3ccccc23)NC(=O)[C@H](Cc2ccc(O)cc2)NC(=O)[C@@H](NC(=O)[C@H](N)Cc2ccc3ccccc3c2)CSSC[C@@H](C(=O)N[C@@H](Cc2ccc3ccccc3c2)C(N)=O)NC(=O)[C@H](Cc2ccccc2)NC1=O [Analog #13, [Phe^6]-cyclo SS-octa] (H-[d2Nal]CY[dW]KFC[2Nal]-NH2; disulfide 2-7; N-terminus assumed)",
    "SYSTEM UNDER TEST": "NMB Receptor (Rattus norvegicus)",
    "OBSERVED MEASUREMENT": "completely inhibited"
  },
  {
    "COMPOUND": "CC(C)[C@@H]1NC(=O)[C@H](CCCCN)NC(=O)[C@@H](Cc2c[nH]c3ccccc23)NC(=O)[C@H](Cc2ccc(O)cc2)NC(=O)[C@@H](NC(=O)[C@H](N)Cc2ccc3ccccc3c2)CSSC[C@@H](C(=O)N[C@@H](Cc2ccc3ccccc3c2)C(N)=O)NC1=O [Analog #1, D-Nal-Cys-Tyr-D-Trp-Lys-Val-Cys-Nal-NH2] (H-[d2Nal]CY[dW]KVC[2Nal]-NH2; disulfide 2-7; N-terminus assumed)",
    "SYSTEM UNDER TEST": "NMB Receptor (Rattus norvegicus)",
    "OBSERVED MEASUREMENT": "completely inhibited"
  },
  {
    "COMPOUND": "CC(C)[C@@H]1NC(=O)[C@H](CCCCN)NC(=O)[C@@H](Cc2ccc3ccccc3c2)NC(=O)[C@H](Cc2ccc(O)cc2)NC(=O)[C@@H](NC(=O)[C@H](N)Cc2ccc3ccccc3c2)CSSC[C@@H](C(=O)N[C@@H](Cc2ccc3ccccc3c2)C(N)=O)NC1=O [Analog #17, [D-Nal^4]-cyclo SS-octa] (H-[d2Nal]CY[d2Nal]KVC[2Nal]-NH2; disulfide 2-7; N-terminus assumed)",
    "SYSTEM UNDER TEST": "NMB Receptor (Rattus norvegicus)",
    "OBSERVED MEASUREMENT": "completely inhibited"
  },
  {
    "COMPOUND": "CC(C)[C@@H]1NC(=O)[C@H](CCCCN)NC(=O)[C@@H](Cc2c[nH]c3ccccc23)NC(=O)[C@H](Cc2ccc(O)cc2)NC(=O)[C@@H](NC(=O)[C@H](N)Cc2ccc3ccccc3c2)CSSC[C@H](C(=O)N[C@@H](Cc2ccc3ccccc3c2)C(N)=O)NC1=O [Analog #11, [D-Cys^7]-cyclo SS-octa] (H-[d2Nal]CY[dW]KV[dC][2Nal]-NH2; disulfide 2-7; N-terminus assumed)",
    "SYSTEM UNDER TEST": "NMB Receptor (Rattus norvegicus)",
    "OBSERVED MEASUREMENT": "completely inhibited"
  },
  {
    "COMPOUND": "C[C@@H](O)[C@H](NC(=O)[C@@H]1CSSC[C@H](NC(=O)[C@H](N)Cc2ccc3ccccc3c2)C(=O)N[C@@H](Cc2ccccc2)C(=O)N[C@H](Cc2c[nH]c3ccccc23)C(=O)N[C@@H](CCCCN)C(=O)N[C@@H]([C@@H](C)O)C(=O)N1)C(N)=O [Analog #18, [Phe^3, Thr^6,8]-cycle SS-octa] (H-[d2Nal]CF[dW]KTCT-NH2; disulfide 2-7)",
    "SYSTEM UNDER TEST": "NMB Receptor (Rattus norvegicus)",
    "OBSERVED MEASUREMENT": "had no effect"
  },
  {
    "COMPOUND": "C[C@@H](O)[C@H](NC(=O)[C@@H]1CSSC[C@H](NC(=O)[C@H](N)Cc2ccc3ccccc3c2)C(=O)N[C@@H](Cc2ccc(O)cc2)C(=O)N[C@H](Cc2c[nH]c3ccccc23)C(=O)N[C@@H](CCCCN)C(=O)N[C@@H]([C@@H](C)O)C(=O)N1)C(N)=O [Analog #6, [Thr^6,8]-cyclo-SS-octa]",
    "SYSTEM UNDER TEST": "NMB Receptor (Rattus norvegicus)",
    "OBSERVED MEASUREMENT": "had no effect"
  }
]

###

- SYSTEM UNDER TEST: GRP Receptor (Rattus norvegicus)
- Construct: from tissue; host or cells: dispersed pancreatic acini
- Sequence (P52500 whole entry): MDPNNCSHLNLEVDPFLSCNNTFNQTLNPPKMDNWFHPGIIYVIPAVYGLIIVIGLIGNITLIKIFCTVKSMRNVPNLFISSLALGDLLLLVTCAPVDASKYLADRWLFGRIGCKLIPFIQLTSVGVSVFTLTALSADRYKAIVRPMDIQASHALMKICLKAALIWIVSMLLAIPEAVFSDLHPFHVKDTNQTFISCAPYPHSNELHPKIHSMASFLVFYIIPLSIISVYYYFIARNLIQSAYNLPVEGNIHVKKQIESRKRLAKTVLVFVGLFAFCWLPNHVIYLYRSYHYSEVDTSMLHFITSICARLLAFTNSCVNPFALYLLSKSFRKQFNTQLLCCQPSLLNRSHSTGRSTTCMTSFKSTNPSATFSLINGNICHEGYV
- PROTOCOL TEXT: Amylase release from rat pancreatic acini
- Type: cell-based
- STATED CONDITIONS: analog 10 µM alone; no-additive control 4 ± 1
Where a SMILES comes first, the peptide text is derived from it. Bridges are numbered along the chain shown (N, C = ends). [ ]: non-standard residue; d: D form. 2Nal = N[C@@H](Cc1ccc2ccccc2c1)C(=O)O; d2Nal = N[C@H](Cc1ccc2ccccc2c1)C(=O)O
Rat Pancreatic Acini Amylase Release Alone (10µM) values for the molecules below.
MEASURE: Rat Pancreatic Acini Amylase Release Alone (10µM)

[
  {
    "MOLECULE": "NCCCC[C@@H]1NC(=O)[C@@H](Cc2c[nH]c3ccccc23)NC(=O)[C@H](Cc2ccc(O)cc2)NC(=O)[C@@H](NC(=O)[C@H](N)Cc2ccc3ccccc3c2)CSSC[C@@H](C(=O)N[C@@H](Cc2ccc3ccccc3c2)C(N)=O)NC(=O)[C@H](Cc2ccccc2)NC1=O [Analog #13, [Phe^6]-cyclo SS-octa] (H-[d2Nal]CY[dW]KFC[2Nal]-NH2; disulfide 2-7; N-terminus assumed)",
    "OBSERVED MEASUREMENT": "3 ± 1 % total"
  },
  {
    "MOLECULE": "CC(C)[C@@H]1NC(=O)[C@H](CCCCN)NC(=O)[C@@H](Cc2c[nH]c3ccccc23)NC(=O)[C@H](Cc2ccc(O)cc2)NC(=O)[C@@H](NC(=O)[C@H](N)Cc2ccc3ccccc3c2)CSSC[C@@H](C(=O)N[C@H](Cc2ccc3ccccc3c2)C(N)=O)NC1=O [Analog #8, [D-Nal^8]-cyclo SS-octa] (H-[d2Nal]CY[dW]KVC[d2Nal]-NH2; disulfide 2-7; N-terminus assumed)",
    "OBSERVED MEASUREMENT": "2 ± 1 % total"
  },
  {
    "MOLECULE": "CC(C)[C@@H]1NC(=O)[C@H](CCCCN)NC(=O)[C@@H](Cc2c[nH]c3ccccc23)NC(=O)[C@H](Cc2ccc(O)cc2)NC(=O)[C@@H](NC(=O)[C@H](N)Cc2c[nH]c3ccccc23)CSSC[C@@H](C(=O)N[C@@H](Cc2ccc3ccccc3c2)C(N)=O)NC1=O [Analog #12, [D-Trp^1]-cyclo SS-octa] (H-[dW]CY[dW]KVC[2Nal]-NH2; disulfide 2-7; N-terminus assumed)",
    "OBSERVED MEASUREMENT": "3 ± 1 % total"
  },
  {
    "MOLECULE": "NCCCC[C@@H]1NC(=O)[C@@H](Cc2c[nH]c3ccccc23)NC(=O)[C@H](Cc2ccc(O)cc2)NC(=O)[C@@H](NC(=O)[C@H](N)Cc2ccc3ccccc3c2)CSSC[C@@H](C(=O)N[C@@H](Cc2ccc3ccccc3c2)C(N)=O)NC(=O)[C@H](Cc2ccc3ccccc3c2)NC1=O [Analog #3, [Nal^6]-cyclo SS-octa] (H-[d2Nal]CY[dW]K[2Nal]C[2Nal]-NH2; disulfide 2-7)",
    "OBSERVED MEASUREMENT": "3 ± 1 % total"
  },
  {
    "MOLECULE": "CC(C)[C@@H]1NC(=O)[C@H](CCCCN)NC(=O)[C@@H](Cc2c[nH]c3ccccc23)NC(=O)[C@H](Cc2ccc(O)cc2)NC(=O)[C@@H](NC(=O)[C@H](N)Cc2ccc3ccccc3c2)CSSC[C@@H](C(=O)N[C@@H](Cc2ccc3ccccc3c2)C(N)=O)NC1=O [Analog #1, D-Nal-Cys-Tyr-D-Trp-Lys-Val-Cys-Nal-NH2] (H-[d2Nal]CY[dW]KVC[2Nal]-NH2; disulfide 2-7; N-terminus assumed)",
    "OBSERVED MEASUREMENT": "5 ± 1 % total"
  },
  {
    "MOLECULE": "C[C@@H](O)[C@H](NC(=O)[C@@H]1CSSC[C@H](NC(=O)[C@H](N)Cc2ccc3ccccc3c2)C(=O)N[C@@H](Cc2ccc(O)cc2)C(=O)N[C@H](Cc2c[nH]c3ccccc23)C(=O)N[C@@H](CCCCN)C(=O)N[C@@H]([C@@H](C)O)C(=O)N1)C(N)=O [Analog #6, [Thr^6,8]-cyclo-SS-octa]",
    "OBSERVED MEASUREMENT": "3 ± 1 % total"
  },
  {
    "MOLECULE": "CC(C)[C@@H]1NC(=O)[C@H](CCCCN)NC(=O)[C@@H](Cc2ccc3ccccc3c2)NC(=O)[C@H](Cc2ccc(O)cc2)NC(=O)[C@@H](NC(=O)[C@H](N)Cc2ccc3ccccc3c2)CSSC[C@@H](C(=O)N[C@@H](Cc2ccc3ccccc3c2)C(N)=O)NC1=O [Analog #17, [D-Nal^4]-cyclo SS-octa] (H-[d2Nal]CY[d2Nal]KVC[2Nal]-NH2; disulfide 2-7; N-terminus assumed)",
    "OBSERVED MEASUREMENT": "4 ± 2 % total"
  },
  {
    "MOLECULE": "CC(C)[C@@H]1NC(=O)[C@H](Cc2c[nH]cn2)NC(=O)[C@@H](Cc2c[nH]c3ccccc23)NC(=O)[C@H](Cc2ccc(O)cc2)NC(=O)[C@@H](NC(=O)[C@H](N)Cc2ccc3ccccc3c2)CSSC[C@@H](C(=O)N[C@@H](Cc2ccc3ccccc3c2)C(N)=O)NC1=O [Analog #14, [His^5]-cyclo SS-octa] (H-[d2Nal]CY[dW]HVC[2Nal]-NH2; disulfide 2-7; N-terminus assumed)",
    "OBSERVED MEASUREMENT": "2 ± 1 % total"
  },
  {
    "MOLECULE": "CC(C)[C@@H]1NC(=O)[C@H](CCCCN)NC(=O)[C@@H](Cc2c[nH]c3ccccc23)NC(=O)[C@H](Cc2ccc(O)cc2)NC(=O)[C@@H](NC(=O)[C@H](N)Cc2ccccc2)CSSC[C@@H](C(=O)N[C@@H](Cc2ccc3ccccc3c2)C(N)=O)NC1=O [Analog #4, [D-Phe^1]-cyclo SS-octa] (H-[dF]CY[dW]KVC[2Nal]-NH2; disulfide 2-7; N-terminus assumed)",
    "OBSERVED MEASUREMENT": "4 ± 2 % total"
  },
  {
    "MOLECULE": "CC(C)[C@@H]1NC(=O)[C@H](CCCCN)NC(=O)[C@@H](Cc2c[nH]c3ccccc23)NC(=O)[C@H](Cc2ccc(O)cc2)NC(=O)[C@@H](NC(=O)[C@@H](N)Cc2ccc3ccccc3c2)CSSC[C@@H](C(=O)N[C@H](Cc2ccc3ccccc3c2)C(N)=O)NC1=O [Analog #9, [Nal^1,D-Nal^8]-cyclo SS-octa] (H-[2Nal]CY[dW]KVC[d2Nal]-NH2; disulfide 2-7; N-terminus assumed)",
    "OBSERVED MEASUREMENT": "3 ± 1 % total"
  }
]
